// reported relative KD to VH0/Vκ0 per item
Biological target: T1, His-tagged CEACAM1 (human, UniProt P13688 35-428)
T1 construct: 45 kDa SPR analyte; also called CEACAM1-HIS; CEACAM1 analyte
T1 sequence: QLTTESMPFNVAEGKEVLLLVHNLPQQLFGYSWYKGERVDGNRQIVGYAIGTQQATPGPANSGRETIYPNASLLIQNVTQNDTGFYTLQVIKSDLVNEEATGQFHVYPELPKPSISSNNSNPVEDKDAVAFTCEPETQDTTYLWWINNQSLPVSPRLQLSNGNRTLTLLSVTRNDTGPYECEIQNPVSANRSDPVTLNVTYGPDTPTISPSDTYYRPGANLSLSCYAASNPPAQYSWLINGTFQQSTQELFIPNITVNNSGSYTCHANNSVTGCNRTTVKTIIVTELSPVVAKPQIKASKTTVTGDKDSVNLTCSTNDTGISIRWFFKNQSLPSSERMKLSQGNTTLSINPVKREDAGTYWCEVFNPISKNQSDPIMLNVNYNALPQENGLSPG
Assay: SPR single-cycle, IgG captured
Form rule: numeric answer, no unit written next to it.

BINDER: VH1/Vκ11 (antibody, IgG4, V domains shown, IgG4 (S241P), kappa) VH: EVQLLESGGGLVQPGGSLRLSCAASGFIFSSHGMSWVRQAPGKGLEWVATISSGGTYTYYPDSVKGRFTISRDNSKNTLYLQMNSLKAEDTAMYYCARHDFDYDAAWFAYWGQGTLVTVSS VL: EIVLTQSPATLSLSPGERATLSCRANSSVSYMYWYQQKPGQAPRPWIYLTSNRATGIPARFSGSGSGTDYTLTISSLEPEDFAVYYCQQWSSNPPTFGQGTKLEIK
MEASUREMENT_NAME: relative KD to VH0/Vκ0
RESULT_VALUE: 3.5

Which relative KD to VH0/Vκ0 value belongs to VH2/Vκ1 (antibody, IgG4, V domains shown, IgG4 (S241P), kappa) VH: EVQLLESGGGLVQPGGSLRLSCAASGFIFSSHGMSWVRQAPGKGLEWVATISSGGTYTYYPDSVKGRFTISRDNSKNTLYLQMNSLRAEDTAMYYCARHDFDYDAAWFAYWGQGTLVTVSS VL: QIVLTQSPALLSLSPGERATMSCSANSSVSYMYWYRQKPGQAPKPWIYLTSNLASGVPARFSGSGSGTDYTLTISSLEAEDFATYYCQQWSSNPPTFGQGTKLEIK ?
2.7

Attribution: patent US20250074980A1
